target_or_system: BRD4 bromodomains (Homo sapiens)
protocol_summary: NanoBRET target engagement assay, both bromodomains
Assay type: cell-based
condition_summary: BD1 and BD2, intact cells; read-out: NanoBRET EC50 BRD4 bromodomains
pEC50: −log10 of the molar value.
pEC50: recorded values

1. Cn1cc(-c2ccc3cc(C(=O)Nc4ccccc4N)ccc3n2)c2cc[nH]c2c1=O; 6.40 to 7.00

Now examine the next entry.
Sample Cn1cc(-c2ccc(C(=O)Nc3ccccc3N)cc2)c2cc[nH]c2c1=O ; pEC50 observed: 6.40 to 7.00

====

pEC50: recorded values
target_or_system: HDAC1 (Homo sapiens, UniProt Q13547)
Sequence (Q13547 whole entry): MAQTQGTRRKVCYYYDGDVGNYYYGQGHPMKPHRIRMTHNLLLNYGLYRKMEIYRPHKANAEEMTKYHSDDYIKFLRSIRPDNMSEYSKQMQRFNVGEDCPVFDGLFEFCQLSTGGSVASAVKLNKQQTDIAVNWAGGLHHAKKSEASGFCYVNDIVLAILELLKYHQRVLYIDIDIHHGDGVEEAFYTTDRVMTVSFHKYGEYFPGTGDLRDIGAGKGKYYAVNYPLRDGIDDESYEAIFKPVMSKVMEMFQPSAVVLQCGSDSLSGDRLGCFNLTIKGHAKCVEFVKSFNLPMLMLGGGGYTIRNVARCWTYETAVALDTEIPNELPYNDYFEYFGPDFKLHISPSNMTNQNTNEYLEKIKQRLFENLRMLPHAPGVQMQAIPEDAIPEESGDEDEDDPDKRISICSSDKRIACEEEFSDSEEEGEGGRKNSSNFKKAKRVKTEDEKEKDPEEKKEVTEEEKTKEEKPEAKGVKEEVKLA
protocol_summary: NanoBRET target engagement assay (HEK293T)
Type: cell-based
Set-up: BRD4 bromodomains and full-length HDACs were obtained as plasmids cloned in-frame with a terminal NanoLuc fusion; host or cells: HEK293T
condition_summary: intact cells
Recall that pEC50 is obtained by taking minus log10 of the concentration measured in molar.

Look over these answered cases.
1. Cn1cc(-c2ccc(C(=O)Nc3ccccc3N)nc2)c2cc[nH]c2c1=O; 5.32
2. Cn1cc(-c2ccc(C(=O)Nc3ccccc3N)nn2)c2cc[nH]c2c1=O; 4.77
3. Cn1cc(-c2ccc(C(=O)Nc3cc(-c4ccccc4)ccc3N)nc2)c2cc[nH]c2c1=O; 6.96

Sample Cn1cc(-c2ccc(C(=O)Nc3ccccc3N)cc2)c2cc[nH]c2c1=O ; pEC50 observed: 5.59

Sample Cn1cc(-c2ccc(C(=O)Nc3ccccc3N)cc2N)c2cc[nH]c2c1=O ; pEC50 observed: 4.46

Sample Cn1cc(-c2ccc(C(=O)Nc3cc(-c4ccco4)ccc3N)nc2)c2cc[nH]c2c1=O ; pEC50 observed: 5.89

Sample Cn1cc(-c2ccc(C(=O)Nc3cc(-c4cccs4)ccc3N)nc2)c2cc[nH]c2c1=O ; pEC50 observed: 6.85

Sample Cn1cc(-c2ccc(C(=O)Nc3cc(-c4ccccc4)ccc3N)cc2)c2cc[nH]c2c1=O ; pEC50 observed: 6.72

Sample Cc1cc(/N=N/c2ccc(C(=O)Nc3ccccc3N)cc2)c(N)cc1O ; pEC50 observed: 4.97

====

ΔTm at 10 µM: recorded values
target_or_system: BRD4 BD1 (Homo sapiens, UniProt O60885)
protocol_summary: DSF thermal shift assay
Assay type: binding
Set-up: purchased in-house (SGC Frankfurt recombinant bromodomain DSF panel)
condition_summary: 10 μM compound, 2 μM protein; read-out: DSF ΔTm BRD4 BD1
Protocol: The effects of inhibitor binding on the apparent melting temperature of recombinant bromodomains were determined by DSF in a 96-well plate (Starlab) at a protein concentration of 2 μM with 10 μΜ compound in buffer containing 25 mM HEPES, pH 7.5, 150 mM NaCl, and 0.5 mM TCEP. […] Protein unfolding profiles were recorded using an MX3005P real-time qPCR instrument (Agilent; excitation/emission filters = 492/610 nm) while increasing the temperature from 25 to 95 °C at a heating rate of 3 °C/min. […]
Note: unit °C is implicit; provide only the numeric part.

Look over these answered cases.
1) Cn1cc(-c2ccc(C(=O)Nc3ccccc3N)cc2N)c2cc[nH]c2c1=O; 0.9
2) Cc1cc(/N=N/c2ccc(C(=O)Nc3ccccc3N)cc2)c2cc[nH]c2c1O; 7.5
3) Cc1cc(/N=N/c2ccc(S(=O)(=O)Nc3ccccn3)cc2)c(N)cc1O [MS436, reference compound]; 4
4) Cn1cc(C(=O)Nc2ccc(C(=O)Nc3ccccc3N)cc2)c2cc[nH]c2c1=O; 1.9

Sample Cc1cc(/N=N/c2ccc(C(=O)Nc3ccccc3N)cc2)c(N)cc1O ; ΔTm at 10 µM observed: 5.3

Sample COc1cc(C(=O)Nc2ccccc2N)ccc1-c1cn(C)c(=O)c2[nH]ccc12 ; ΔTm at 10 µM observed: 3.8

Sample Cn1cc(-c2ccc(C(=O)Nc3ccccc3N)nc2)c2cc[nH]c2c1=O ; ΔTm at 10 µM observed: 4.2

====

target_or_system: HDAC1 (Homo sapiens, UniProt Q13547)
protocol_summary: NanoBRET target engagement assay (HEK293T)
Format: cell-based
Design: BRD4 bromodomains and full-length HDACs were obtained as plasmids cloned in-frame with a terminal NanoLuc fusion; host or cells: HEK293T
condition_summary: lysed cells (digitonin)
EC50: recorded values
Note: unit µM is implicit; provide only the numeric part.

1. Cn1cc(-c2ccc(C(=O)Nc3cc(-c4cccs4)ccc3N)nc2)c2cc[nH]c2c1=O [NB514]; 0.022
2. Cn1cc(-c2ccc(C(=O)Nc3ccccc3N)cc2N)c2cc[nH]c2c1=O [NB469]; 32.2
3. Cn1cc(-c2ccc3cc(C(=O)Nc4ccccc4N)ccc3n2)c2cc[nH]c2c1=O [NB437]; 11

Now examine the next entry.
Sample Cn1cc(-c2ccc(C(=O)Nc3ccc(F)cc3N)nc2)c2cc[nH]c2c1=O [NB507] ; EC50 observed: 8.2

====

target_or_system: BRD4 BD1 (Homo sapiens)
protocol_summary: NanoBRET target engagement assay (HEK293T)
Type: cell-based
Parameters: BRD4 bromodomains and full-length HDACs were obtained as plasmids cloned in-frame with a terminal NanoLuc fusion; host or cells: HEK293T
condition_summary: intact cells
experimental_readout: pEC50
Recall that pEC50 is obtained by taking minus log10 of the concentration measured in molar.

Sample Cc1cc(/N=N/c2ccc(C(=O)Nc3ccccc3N)cc2)c2cc[nH]c2c1O ; pEC50 observed: 6.72

Sample Cn1cc(-c2ccc(C(=O)Nc3ccccc3N)cc2N)c2cc[nH]c2c1=O ; pEC50 observed: 5.43

Sample Cn1cc(-c2ccc(C(=O)Nc3cc(-c4ccco4)ccc3N)nc2)c2cc[nH]c2c1=O ; pEC50 observed: 6.43

Sample Cn1cc(-c2ccc3cc(C(=O)Nc4ccccc4N)ccc3n2)c2cc[nH]c2c1=O ; pEC50 observed: 6.74

====

System: PaTu8988T cells
protocol_summary: CellTiter-Glo cell viability assay
Type: cell-based
condition_summary: Homo sapiens, PaTu 8988t, 72 h; treatment for 3 days
experimental_readout: IC50 (µM)
Note: unit µM is implicit; provide only the numeric part.

Look over these answered cases.
1) Cn1cc(-c2ccc(C(=O)Nc3cc(-c4ccco4)ccc3N)nc2)c2cc[nH]c2c1=O [NB513]; 2.6
2) Cn1cc(-c2ccc(C(=O)Nc3cc(-c4ccccc4)ccc3N)cc2)c2cc[nH]c2c1=O [NB503]; 2.8
3) Cn1cc(-c2ccc(C(=O)Nc3ccccc3N)nn2)c2cc[nH]c2c1=O [NB501]; 8.5
4) Cn1cc(-c2ccc(C(=O)Nc3cc(-c4cccs4)ccc3N)nc2)c2cc[nH]c2c1=O [NB514]; 4.1
5) Cc1cc(/N=N/c2ccc(S(=O)(=O)Nc3ccccn3)cc2)c(N)cc1O [MS436, reference compound]; 10.4
6) CC(=O)Nc1ccc(C(=O)Nc2ccccc2N)cc1 [CI-994, reference compound]; 13.1

Sample Cn1cc(-c2ccc(C(=O)Nc3ccccc3N)nc2)c2cc[nH]c2c1=O [NB500] ; IC50 observed: 3.2

Sample Cn1cc(-c2ccc(C(=O)Nc3ccccc3N)cc2)c2cc[nH]c2c1=O [NB462] ; IC50 observed: 2.7

Sample Cn1cc(-c2ccc(C(=O)Nc3ccc(F)cc3N)nc2)c2cc[nH]c2c1=O [NB507] ; IC50 observed: 5.2

Sample Cn1cc(-c2ccc(C(=O)Nc3cc(-c4ccccc4)ccc3N)nc2)c2cc[nH]c2c1=O [NB512] ; IC50 observed: 3.6

====

target_or_system: BRD4 BD1 (Homo sapiens)
protocol_summary: NanoBRET target engagement assay (HEK293T)
Format: cell-based
Design: BRD4 bromodomains and full-length HDACs were obtained as plasmids cloned in-frame with a terminal NanoLuc fusion; host or cells: HEK293T
condition_summary: intact cells
pEC50: recorded values
Recall that pEC50 is obtained by taking minus log10 of the concentration measured in molar.

Look over these answered cases.
1. Cn1cc(-c2ccc(C(=O)Nc3cc(-c4cccs4)ccc3N)nc2)c2cc[nH]c2c1=O [NB514]; 6.54
2. Cn1cc(-c2ccc(C(=O)Nc3cc(-c4ccccc4)ccc3N)nc2)c2cc[nH]c2c1=O [NB512]; 6.44
3. Cn1cc(C(=O)Nc2ccc(C(=O)Nc3ccccc3N)cc2)c2cc[nH]c2c1=O [NB480]; 5.59
4. COc1cc(C(=O)Nc2ccccc2N)ccc1-c1cn(C)c(=O)c2[nH]ccc12 [NB470]; 6.41
5. Cn1cc(-c2ccc(C(=O)Nc3ccc(F)cc3N)nc2)c2cc[nH]c2c1=O [NB507]; 6.47
6. Cn1cc(-c2ccc(C(=O)Nc3ccccc3N)cc2)c2cc[nH]c2c1=O [NB462]; 6.60

Sample Cn1cc(-c2ccc(C(=O)Nc3cc(-c4ccccc4)ccc3N)cc2)c2cc[nH]c2c1=O [NB503] ; pEC50 observed: 6.38

Sample Cn1cc(-c2ccc(C(=O)Nc3ccccc3N)nc2)c2cc[nH]c2c1=O [NB500] ; pEC50 observed: 6.62

Sample Cn1cc(-c2ccc(C(=O)Nc3ccccc3N)nn2)c2cc[nH]c2c1=O [NB501] ; pEC50 observed: 6.41
